# PROTOCOL_SUMMARY: Inhibition of Salmonella Typhimurium Rma binding to DNA
# Design: species or system Salmonella enterica subsp. enterica serovar Typhimurium
Catalogue of IC50 readings, one per entry.
REPORTED_ENDPOINT: IC50 (µM)

| ITEM_SMILES | REPORTED_ENDPOINT | NUMERIC_RESULT |
| --- | --- | --- |
| O=C(Nc1ccc(-c2nc3ccc([N+](=O)[O-])cc3n2O)cc1)c1ccc(F)cc1 | IC50 | 4.9 |
| CN(C)c1ccc(C(=O)Nc2ccc(-c3nc4ccc([N+](=O)[O-])cc4n3O)cc2)cc1 | IC50 | 1.8 |
